- Measured target: T1, EPO/EPOR interaction (EPOR-CD131-Fc and EPO) (Homo sapiens, UniProt P19235+P32927)
- T1 construct: Chimeric Fc fusion proteins of the extracellular domains of human EPOR and human CD131; purchased Sino Biological CT010-H02H
- T1 sequence (P19235 25-250 limits assumed): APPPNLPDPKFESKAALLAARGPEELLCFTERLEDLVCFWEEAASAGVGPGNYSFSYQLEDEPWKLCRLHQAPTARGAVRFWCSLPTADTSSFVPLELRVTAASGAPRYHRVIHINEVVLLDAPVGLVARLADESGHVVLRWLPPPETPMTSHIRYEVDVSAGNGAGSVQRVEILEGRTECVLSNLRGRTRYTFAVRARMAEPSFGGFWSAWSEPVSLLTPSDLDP
- T1 sequence (P32927 17-443 limits assumed): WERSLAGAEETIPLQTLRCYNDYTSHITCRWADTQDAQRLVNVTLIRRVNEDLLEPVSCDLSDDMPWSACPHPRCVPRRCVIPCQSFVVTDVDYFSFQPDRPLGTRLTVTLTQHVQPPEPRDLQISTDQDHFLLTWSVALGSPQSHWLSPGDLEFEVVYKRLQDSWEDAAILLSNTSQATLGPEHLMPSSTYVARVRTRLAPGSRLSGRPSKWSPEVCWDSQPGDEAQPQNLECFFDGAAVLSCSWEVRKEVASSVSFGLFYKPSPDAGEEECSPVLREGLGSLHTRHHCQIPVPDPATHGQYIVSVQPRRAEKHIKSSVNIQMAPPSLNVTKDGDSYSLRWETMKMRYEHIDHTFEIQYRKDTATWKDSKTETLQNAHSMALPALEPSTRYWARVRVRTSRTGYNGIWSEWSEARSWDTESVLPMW
- Test protocol: Octet blocking of the EPO/EPOR interaction by hybridoma supernatants
- Assay type: binding
- Assay conditions: EPO 10 nM

Molecule | blocking of the EPO/EPOR interaction
EPORab - M41: hybridoma antibody clone, VH/VK in Table 10 (antibody, V domains shown) VH: QVQLVESGGGLVQPGRSLRLSCAASGFTFDDYAIHWVRQAPGKGLEWVSGISYNSENIGYADSVKGRFTISRDNAKNSLYLQMNSLRSEDTALYYCAKDMFLTWFSSFDYWGQGTLVTVSS VL: ETKLTQSPGTLSLSPGERTTLSCRASQSISNNYLAWYQQKPGQAPRLLIYRASTRATGIPDRFSGSGSGTDFTLTIRRLEPEDFAVYYCQRYGRSPLTFGGGTKVEIK | partial blocking
EPORab - M43: hybridoma antibody clone, VH/VK in Table 10 (antibody, V domains shown) VH: QVQLQESGPGLVKPSGTLSLTCAVSGGSISSSNWWSWVRQPPGKGLEWIGEIYHSGSINYNPSLKSRVTISVDKSKNQFSLKLTSVTAADTAVYYCASALGNYYGAFDLWGQGTMVTVSS VL: DIVMTQSPSSLSASVGDRVTITCRASQTISSYLNWYQQKPGKAPKLLICAASSLQGGVPSRFSGSGSGTDFTLTISSLQPEDFAPYYCQQSYSTPYTFGQGTKLEIK | did not block
EPORab - M24: hybridoma antibody clone, VH/VK in Table 10 (antibody, V domains shown) VH: EVQLVESGGGLVKPGGSLRLSCAASGFTFTNAWMNWVRQAPGKGLEWIGRIKSKTAGETTDYAAPVKGRFTISRDDSKNTLYLQMNSLKTEDTAVYYCTTDPDYGDPYYYYYFMDVWGKGTTVTVSS VL: DIQMTQSPSSLSASIGDRVTISCRASQSISSYLNWYQQKPGKAPKLLIYGASSLQSGVPSRFSGSGSGTDFTLTISSLQPEDFATYYCQQSYSLPLTFGGGTKVEIK | partial blocking
EPORab - M37: hybridoma antibody clone, VH/VK in Table 10 (antibody, V domains shown) VH: QVQLQESGPGLVKPSGTLSLTCAVSGGSITTNNWWSWVRQSPGKGLEWIGEIYHSGNTNYNPSLKSRVTMSVDKSKNQFSLNLNSVIVADTAVYYCASALGTYYGAFDTWGQGTMVTVSA VL: DIQMTQSPSSLSASVGDRVTITCRASQSISNYLNWYQQKPGKAPKLLIYAASSLQSGVPSRFSGSGSGTDFTLTISSLQPEDFTTYYCQQSYGTPYTFGQGAKLQIK | did not block
EPORab - M1: hybridoma antibody clone, VH/VK in Table 10 (antibody, V domains shown) VH: QVQLQESGPGLVKPSQTLSLTCTVSGGSISSGGYYWSWIRQHPGKGLEWIGNIYYSGNPYYNPSLKSRLIISVDTSKNQFSLRLNSVTAADTAVYYCATFYYGSGSYYNEDYWGQGTLVTVSS VL: DIQMTQSPSSLSASVGDRVTITCRASQGIRIDLGWYQQKPGKAPKRLIYAASSLKSGVPSRFSGSGSGTEFTLTISSLQPEDFTTYFCLQHNSYPYTFGQGTKLEIK | partial blocking
EPORab - M19: hybridoma antibody clone, VH/VK in Table 10 (antibody, V domains shown) VH: QLQLQESGPGLVKPSETLSLTCTVSGGSISSSNHYWGWIRQPPGKGLEWIGTLYYSGSTYYEPSLKSRVTISVDTSMNQFSLNLSSVTATDTAVYNCARGDRYGPFDYWGQGTLVTVSS VL: DIVMTQSPSSLSASVGDRVTITCRASQGIRDDLGWYQQKPEKAPKRLICAASSLQSGVPSRFSGSGSGTEFTLTISSLQPEDFATYYCLQYNRYPWTFGQGTKVEIK | partial blocking
EPORab - M71: hybridoma antibody clone, VH/VK in Table 10 (antibody, V domains shown) VH: QVQLVESGAEVKKPRASVKVSCKTSGYTFTRHYMHWVRQAPGQGLEWMGIINPNNNSTSYAQKFQGRITMTRDTSTSTVYMELSSLRSEDTAVYYCARFRIVGTTLYFDYWGQGTLVTVSS VL: EIVMTQSPATLSVSPGERATLSCRASQSVSSNLAWYQLKPGQAPRLLIYGASTRATGIPARFSGSGSGTEFTLTISSLQSEDFAVYYCHPYNNWPLTFGGGTKVEIK | did not block
EPORab - M52: hybridoma antibody clone, VH/VK in Table 10 (antibody, V domains shown) VH: QLQLQESGPGLAKPSETLSLTCTVSGVSISSNSYYWGWIRQPPGKGLEWIGNIYHSGRTYYNPSLRSRVTISVDTSKNQFSLKLNSVTAADTAVYYCARGYSYGAFDYWGQGTLVTVSS VL: DIQMTQSPSSLSASVGDRVTITCRASQGIRNDLGWYQQKPGKAPKRLIYAASSLQSGIPSRFSGSGSGTEFTLTISSLQPEDFATYYCLQHNNYPWTFGQGTKVEIK | partial blocking
EPORab - M54: hybridoma antibody clone, VH/VK in Table 10 (antibody, V domains shown) VH: QLQLQESGPGLVKPSETLSLTCSVSGGSISSSGYYWGWIRQPPGKGLDWIGTIYYSGNTNYNPSLNSRVTISVDTSRNQFSLKLRSVTAADTAVYYCARGYSYGPFDYWGQGTLVTVSS VL: EIVMTQSPATLSVSPGERATLSCRASQSVSSNLAWYQLKPGQAPRLLIYGASTRATGIPARFSGSGSGTEFTLTISSLQSEDFAVYYCHPYNNWPLTFGGGTKVEIK | partial blocking
